Entry source: paper PMC6856721

Target: S. aureus gyrase (Staphylococcus aureus, UniProt P0A0K8+P20831)
Construct: purchased Inspiralis Inc. SAS4001 (supercoiling kit); SAGC001 (cleavage assay kit)
Sequence (P0A0K8 whole entry): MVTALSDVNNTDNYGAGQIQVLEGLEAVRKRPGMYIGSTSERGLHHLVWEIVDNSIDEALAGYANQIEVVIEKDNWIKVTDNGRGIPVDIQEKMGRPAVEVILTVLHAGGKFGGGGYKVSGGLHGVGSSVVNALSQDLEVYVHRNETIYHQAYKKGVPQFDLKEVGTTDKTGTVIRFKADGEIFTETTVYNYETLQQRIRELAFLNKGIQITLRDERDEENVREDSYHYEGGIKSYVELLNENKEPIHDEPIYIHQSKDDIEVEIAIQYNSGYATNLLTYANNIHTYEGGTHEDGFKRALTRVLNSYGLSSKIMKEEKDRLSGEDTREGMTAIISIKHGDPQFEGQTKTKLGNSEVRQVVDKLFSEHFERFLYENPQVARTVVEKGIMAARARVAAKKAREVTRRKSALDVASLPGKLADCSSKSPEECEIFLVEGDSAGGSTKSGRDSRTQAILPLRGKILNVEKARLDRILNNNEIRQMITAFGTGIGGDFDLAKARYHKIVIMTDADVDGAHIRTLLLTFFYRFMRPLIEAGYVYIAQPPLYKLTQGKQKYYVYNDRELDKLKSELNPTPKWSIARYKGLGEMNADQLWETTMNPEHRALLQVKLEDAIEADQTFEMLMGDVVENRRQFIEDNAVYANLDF
Sequence (P20831 whole entry): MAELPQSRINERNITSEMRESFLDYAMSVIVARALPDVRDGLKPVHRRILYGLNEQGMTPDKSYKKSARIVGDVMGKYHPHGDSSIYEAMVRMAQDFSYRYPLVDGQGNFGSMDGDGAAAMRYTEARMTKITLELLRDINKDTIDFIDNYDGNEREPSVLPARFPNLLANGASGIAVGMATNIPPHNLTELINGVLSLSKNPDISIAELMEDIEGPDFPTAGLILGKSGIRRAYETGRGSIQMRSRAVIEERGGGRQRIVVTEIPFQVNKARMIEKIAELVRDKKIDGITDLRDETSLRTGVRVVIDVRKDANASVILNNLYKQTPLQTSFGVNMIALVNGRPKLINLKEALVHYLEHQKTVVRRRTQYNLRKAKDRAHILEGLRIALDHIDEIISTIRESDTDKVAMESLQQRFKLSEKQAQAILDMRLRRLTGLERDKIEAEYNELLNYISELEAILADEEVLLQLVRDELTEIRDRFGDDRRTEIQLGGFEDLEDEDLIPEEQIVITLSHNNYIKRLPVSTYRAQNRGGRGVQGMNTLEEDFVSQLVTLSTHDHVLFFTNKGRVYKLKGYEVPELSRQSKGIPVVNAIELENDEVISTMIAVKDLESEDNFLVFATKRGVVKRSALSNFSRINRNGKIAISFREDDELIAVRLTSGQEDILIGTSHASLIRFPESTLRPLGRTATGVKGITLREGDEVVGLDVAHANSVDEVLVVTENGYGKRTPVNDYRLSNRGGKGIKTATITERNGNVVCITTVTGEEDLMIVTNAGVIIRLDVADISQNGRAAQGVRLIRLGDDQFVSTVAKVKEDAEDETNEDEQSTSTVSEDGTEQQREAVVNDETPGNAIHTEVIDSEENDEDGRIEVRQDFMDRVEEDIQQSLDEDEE
Experiment: S. aureus gyrase relaxation
Assay type: biochemical
Details: ATP-independent, read-out: IC50, gyrase-induced relaxation
endpoint.label: IC50

For the molecule O=C(/C=C/c1cccc2cccnc12)NNC(=O)c1cc(-c2ccccc2)on1 , what IC50 is on record? 0.1 to 0.5 µM

* * *

Test system: S. venezuelae
Assay: S. venezuelae sporulation inhibition disk diffusion assay (whi phenotype, SEM)
Assay type: cell-based, Streptomyces venezuelae
Details: disk with 10 μL antibiotic, 48 h, white halo in sub-MIC region
endpoint.label: Sporulation inhibition

For the compound NC[C@H]1O[C@H](O[C@H]2[C@H](O)[C@@H](O[C@H]3O[C@H](CO)[C@@H](O)[C@H](N)[C@H]3O)[C@H](N)C[C@@H]2N)[C@H](O)[C@@H](O)[C@@H]1O , what Sporulation inhibition is on record? −

Now the compound Oc1cc(Cl)ccc1Oc1ccc(Cl)cc1Cl −

Now the compound CO[C@@]12[C@H](COC(N)=O)C3=C(C(=O)C(C)=C(N)C3=O)N1C[C@@H]1N[C@@H]12 +

Now the compound CO[C@H]1/C=C/O[C@@]2(C)Oc3c(C)c(O)c4c(O)c(c(/C=N/N5CCN(C)CC5)c(O)c4c3C2=O)NC(=O)/C(C)=C\C=C\[C@H](C)[C@H](O)[C@@H](C)[C@@H](O)[C@@H](C)[C@H](OC(C)=O)[C@@H]1C −

Now the compound N#CC(C#N)=NNc1cccc(Cl)c1 −

Hi! Can you tell me Sporulation inhibition for each of these compounds?
1. CO[C@@H]1[C@@H](OC(N)=O)[C@@H](O)[C@H](Oc2ccc3c(O)c(NC(=O)c4ccc(O)c(CC=C(C)C)c4)c(=O)oc3c2C)OC1(C)C [novobiocin, reference compound]
2. CN[C@H](CC(C)C)C(=O)N[C@H]1C(=O)N[C@@H](CC(N)=O)C(=O)N[C@H]2C(=O)N[C@H]3C(=O)N[C@H](C(=O)N[C@H](C(=O)O)c4cc(O)cc(O)c4-c4cc3ccc4O)[C@H](O)c3ccc(c(Cl)c3)Oc3cc2cc(c3O[C@@H]2O[C@H](CO)[C@@H](O)[C@H](O)[C@H]2O[C@H]2C[C@](C)(N)[C@H](O)[C@H](C)O2)Oc2ccc(cc2Cl)[C@H]1O
3. O=C(O)c1cn(C2CC2)c2cc(N3CCNCC3)c(F)cc2c1=O [ciprofloxacin, reference compound]

1: +; 2: −; 3: +

* * *

Target: E. coli gyrase (Escherichia coli, UniProt P0AES4+P0AES6)
Sequence (P0AES4 whole entry, one chain of several): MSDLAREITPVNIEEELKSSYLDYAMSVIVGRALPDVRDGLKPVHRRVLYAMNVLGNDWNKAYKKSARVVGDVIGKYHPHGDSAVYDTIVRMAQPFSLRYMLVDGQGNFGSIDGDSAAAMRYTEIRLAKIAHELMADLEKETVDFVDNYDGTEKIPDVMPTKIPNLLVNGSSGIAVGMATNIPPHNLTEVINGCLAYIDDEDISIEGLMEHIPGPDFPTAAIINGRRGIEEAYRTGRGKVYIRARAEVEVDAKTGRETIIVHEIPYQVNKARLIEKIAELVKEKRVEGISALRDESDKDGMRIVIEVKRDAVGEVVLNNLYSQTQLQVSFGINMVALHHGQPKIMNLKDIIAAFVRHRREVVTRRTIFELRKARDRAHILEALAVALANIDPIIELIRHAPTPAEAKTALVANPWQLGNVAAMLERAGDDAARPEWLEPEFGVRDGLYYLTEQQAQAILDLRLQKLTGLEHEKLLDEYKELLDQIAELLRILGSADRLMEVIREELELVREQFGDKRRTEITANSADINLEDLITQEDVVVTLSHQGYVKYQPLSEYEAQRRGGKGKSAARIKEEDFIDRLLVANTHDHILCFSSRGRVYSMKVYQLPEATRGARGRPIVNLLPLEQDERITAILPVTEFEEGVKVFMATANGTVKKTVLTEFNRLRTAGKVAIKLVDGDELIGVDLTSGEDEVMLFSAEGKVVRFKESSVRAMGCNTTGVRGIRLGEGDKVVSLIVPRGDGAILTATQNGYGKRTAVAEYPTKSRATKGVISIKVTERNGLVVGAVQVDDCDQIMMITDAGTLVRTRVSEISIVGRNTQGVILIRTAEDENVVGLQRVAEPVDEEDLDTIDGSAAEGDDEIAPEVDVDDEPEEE
Experiment: E. coli gyrase supercoiling
Conditions: purified E. coli gyrase
endpoint.label: IC50 (nM)
One number for each entry, in nM.

API: value(readout= IC50, system= E. coli gyrase (Escherichia coli, UniProt P0AES4+P0AES6), query= O=C(/C=C/c1cccc2cccnc12)NNC(=O)c1cc(-c2ccccc2)on1 ) 1750

* * *

Biological target: S. aureus gyrase (Staphylococcus aureus, UniProt P0A0K8+P20831)
Construct: purchased Inspiralis Inc. SAS4001 (supercoiling kit); SAGC001 (cleavage assay kit)
Test: S. aureus gyrase supercoiling
Assay type: biochemical
Conditions: purified S. aureus gyrase, wild-type
endpoint.label: pIC50
Give bare numbers, as −log10 of the molar value.

For the compound O=C(/C=C/c1cccc2cccnc12)NNC(=O)c1cc(-c2ccccc2)on1 , what pIC50 is on record? 7.07

* * *

Target: S. aureus topoisomerase IV (Staphylococcus aureus, UniProt P0C1S7+P0C1U9)
Sequence (P0C1U9 whole entry): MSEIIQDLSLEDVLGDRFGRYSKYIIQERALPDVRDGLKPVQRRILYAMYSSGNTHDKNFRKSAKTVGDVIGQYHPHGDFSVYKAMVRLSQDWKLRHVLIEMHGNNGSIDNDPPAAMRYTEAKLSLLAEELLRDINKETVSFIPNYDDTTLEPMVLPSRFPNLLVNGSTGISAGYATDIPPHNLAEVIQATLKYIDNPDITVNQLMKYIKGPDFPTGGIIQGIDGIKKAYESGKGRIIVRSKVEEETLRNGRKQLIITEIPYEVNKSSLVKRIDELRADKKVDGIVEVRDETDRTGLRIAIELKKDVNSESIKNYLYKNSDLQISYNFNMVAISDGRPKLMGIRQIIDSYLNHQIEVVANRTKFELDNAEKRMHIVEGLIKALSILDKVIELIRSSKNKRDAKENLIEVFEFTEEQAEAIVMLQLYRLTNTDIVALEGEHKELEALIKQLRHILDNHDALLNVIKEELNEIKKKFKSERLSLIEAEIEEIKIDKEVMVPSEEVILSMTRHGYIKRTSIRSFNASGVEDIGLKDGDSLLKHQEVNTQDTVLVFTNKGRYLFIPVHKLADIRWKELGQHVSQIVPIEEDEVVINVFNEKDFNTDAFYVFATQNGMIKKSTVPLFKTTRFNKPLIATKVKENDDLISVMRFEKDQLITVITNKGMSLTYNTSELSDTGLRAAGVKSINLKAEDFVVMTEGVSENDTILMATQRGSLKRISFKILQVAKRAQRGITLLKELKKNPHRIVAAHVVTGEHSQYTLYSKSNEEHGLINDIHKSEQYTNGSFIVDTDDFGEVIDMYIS
Sequence (P0C1S7 whole entry): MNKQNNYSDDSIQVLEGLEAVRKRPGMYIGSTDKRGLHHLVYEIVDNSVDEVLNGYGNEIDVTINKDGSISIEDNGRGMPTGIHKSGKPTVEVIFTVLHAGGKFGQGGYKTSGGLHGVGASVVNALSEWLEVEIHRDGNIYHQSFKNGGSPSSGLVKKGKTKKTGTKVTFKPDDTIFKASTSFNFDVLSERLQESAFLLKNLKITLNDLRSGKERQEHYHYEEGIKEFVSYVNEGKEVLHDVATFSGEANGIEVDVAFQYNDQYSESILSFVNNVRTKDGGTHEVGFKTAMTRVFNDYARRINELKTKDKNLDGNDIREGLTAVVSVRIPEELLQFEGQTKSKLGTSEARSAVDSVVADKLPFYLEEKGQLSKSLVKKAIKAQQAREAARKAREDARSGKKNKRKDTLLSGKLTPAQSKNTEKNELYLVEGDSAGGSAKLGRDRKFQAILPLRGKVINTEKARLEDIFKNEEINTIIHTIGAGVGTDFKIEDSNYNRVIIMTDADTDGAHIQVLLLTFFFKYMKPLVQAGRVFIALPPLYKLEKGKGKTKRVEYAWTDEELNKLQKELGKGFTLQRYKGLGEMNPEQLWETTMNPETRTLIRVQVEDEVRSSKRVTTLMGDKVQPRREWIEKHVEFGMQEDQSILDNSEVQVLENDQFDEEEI
Experiment: S. aureus topoisomerase IV decatenation
Conditions: purified S. aureus topoisomerase IV; no activity up to; read-out: IC50, topoisomerase IV-catalyzed decatenation
endpoint.label: IC50

For the compound O=C(/C=C/c1cccc2cccnc12)NNC(=O)c1cc(-c2ccccc2)on1 , what IC50 is on record? > 100 µM
